System: Trypanosoma cruzi
ASSAY_OVERVIEW: Trypanosoma cruzi phosphomannomutase and mannose-1-phosphate guanylyltransferase assay
Format: functional
Set-up: scale not given: direction of the effect not stated beside the values
COND: 10 µM
As shown below, each of these molecules has a reported Percent Effect value.
VALUE_KIND: Percent Effect (%)

| MOLECULE | OBSERVED_RESULT |
| --- | --- |
| CCOC(C)c1nc(CN2CCNCC2)cs1 (stereo not drawn) | -3.09 |
| CN(CCOc1cccc(CN)c1)C1CCOCC1 | 1.54 |
| FC1(F)CCN(Cc2ccncc2)CC12CCN(Cc1ccccn1)C2 (stereo not drawn) | -5.96 |
| Cc1cc(C)c(CNC(=O)NCC2CCCO2)c(=O)[nH]1 (stereo not drawn) | -5.64 |
| Cn1cnc2c1CCN(Cc1nc(-c3ccsc3)no1)C2 | 10.7 |
| CC(=O)N1CC(=O)N(c2ccccc2)CC12CCN(Cc1cccs1)C2 (stereo not drawn) | 2.51 |
| Cc1ccccc1[C@@H]1CN(C(=O)c2ccc3[nH]nnc3c2)C[C@H]1C(=O)O | -5.75 |
| CC(C)c1nc(C2CCCN2CC(=O)N2CCc3ccccc32)no1 (stereo not drawn) | -2.82 |
| O=C(CCC(=O)N1CCCC1c1cccs1)N1CCc2sccc2C1 (stereo not drawn) | 5 |
| CCc1nc(CN(C)CC(c2cccs2)N2CCOCC2)no1 (stereo not drawn) | 1.76 |
| CC(=O)Nc1nc(CN2CCOC(Cn3cc(C)cn3)C2)cs1 (stereo not drawn) | 0.0979 |
| CC(=O)Nc1nc(C(=O)N2CCCC(n3nc(C)cc3C)C2)cs1 (stereo not drawn) | -5.13 |
| O=C(N1CCOCC1)[C@@]12CCO[C@@H]1CCN(CCN1CCCCC1)C2 | 1.18 |
| Cc1cnc(CNc2c(F)cccc2-n2cccn2)o1 | -8.46 |
| CN(C)C(=O)COC1COC2(CCN(S(C)(=O)=O)CC2)C1 (stereo not drawn) | -1.47 |
| COc1ccccc1CC(=O)N1CCC(NCc2c[nH]nc2C)CC1 | -1.02 |
| Cc1cnn(CC2CCCN2Cc2nnsc2Cl)c1 (stereo not drawn) | -3.68 |
| c1ccc(-c2noc(CN3CCc4cncnc4C3)n2)nc1 | 8.65 |
| Cc1ccc(C(O)CNCc2c(C(C)C)nn(C)c2N(C)C)cc1 (stereo not drawn) | 7.87 |
| Cc1cnn(CCNCC(=O)NCc2ccccc2)c1 | 2.15 |
| Cc1ncsc1C(=O)NCCSCCCO | 1.02 |
| O=C(C1=CCCC1)N1C[C@@H]2COC[C@]2(COc2cccnc2)C1 | -1.27 |
| CC(C)c1nc2n(n1)CC(NCc1ccncc1)CC2 (stereo not drawn) | 2.63 |
| O=C(O)c1ccc(F)c(S(=O)(=O)Nc2ccc(-n3cccn3)c(Cl)c2)c1 | -2.63 |
| CN(C)C(=O)N1CCOCC2(CCN(c3ccccn3)C2)C1 (stereo not drawn) | -2.64 |
| Cc1nccn1CC1CCCN1S(=O)(=O)Cc1ccon1 (stereo not drawn) | 3.68 |
| CN(C)CCN(Cc1ccc(Cl)cc1)C(=O)c1cc[nH]n1 | 2.23 |
| c1ccc(-c2nc(CNC3CCc4ncnn4C3)co2)cc1 (stereo not drawn) | 7.68 |
| CCC(CC)c1cc(CNC(=O)N2CCOC(C)C2)on1 (stereo not drawn) | -1.86 |
| CNCC(=O)N1CCCC(c2nccnc2Oc2cccc(F)c2)C1 (stereo not drawn) | -3.74 |
| COc1cccn(CC(=O)N(C)CCOc2cc(C)cc(C)c2)c1=O | 2.98 |
| CC(NC(=O)NCCN1CCCCCC1=O)c1nncn1C (stereo not drawn) | 4.92 |
| O=C(Cn1cc(C(=O)O)ccc1=O)Nc1ccc(Cl)cc1F | 1.38 |
| Cc1cc(C)n(C2CCCN(C(=O)C3=NN(C)C(=O)CC3)C2)n1 (stereo not drawn) | 5 |
| CCOCCCNC(=O)c1cc(C)nc(N2CCCC2)n1 | 4.91 |
| CN1[C@H](Cn2cncn2)C[C@@H]2CN(Cc3cccc(C#N)c3)CC[C@@H]21 | 0 |
| CC(COc1ccc(F)cc1F)NC(=O)NCCN1CCOCC1 (stereo not drawn) | 4.77 |
| CCCc1nnsc1C(=O)NCC1CCN(S(C)(=O)=O)CC1 | 1.57 |
| O=C(NCC(O)c1ccccc1Cl)c1cccc(-n2cnnn2)c1 (stereo not drawn) | 1.18 |
| Cc1nc(CN(C)C2CCCN(c3cccnn3)C2)no1 (stereo not drawn) | -3.18 |
| CN(C)CC1(O)CCN(S(=O)(=O)c2ccc(F)cc2)C1 (stereo not drawn) | 3.36 |
| CCn1ccnc1CN1CCN(C(C)C(=O)NC2CCCCC2)CC1 (stereo not drawn) | -7.71 |
| CCc1c(C)nc2n(c1=O)CC(C(=O)Nc1ccccc1F)CS2 (stereo not drawn) | 0.888 |
| CC(=O)Nc1nc(C(=O)Nc2ccc(N3CCCCC3)nc2)cs1 | -3.18 |
| Cc1noc(C)c1CN1CC[C@H]2OCC[C@@H](C(=O)N3CCCO3)[C@@H]2C1 | 5.02 |
| Cc1nn(C)c(Cl)c1C1CCCN1C(=O)c1cc[nH]n1 (stereo not drawn) | 2.74 |
| CCS(=O)(=O)CCNC(=O)c1ccc(-c2ccc(C)cc2)cc1F | -2.26 |
| COC(C(=O)N1CCN(c2cccc(Cl)c2)C(=O)C1)c1ccccc1 (stereo not drawn) | -2.7 |

* * *

Measured Percent Effect values are reported for all entries that follow.
TARGET: Sialic acid-binding Ig-like lectin 9 (Homo sapiens)
ASSAY_OVERVIEW: Hs-Siglec9 ALPHAscreen SOP 20170721
Set-up: scale not given: direction of the effect not stated beside the values
COND: 10 µM
VALUE_KIND: Percent Effect (%)

| COMPOUND | VALUE_KIND | READOUT_UNITS | OBSERVED_RESULT |
| --- | --- | --- | --- |
| Cc1cc(C)n(CC2CCCN2C(=O)c2ccc3c(c2)OCO3)n1 (stereo not drawn) | Percent Effect | % | -3.57 |
| Cc1nn(C)c(C)c1CC(=O)N1CCCC(n2cccn2)C1 (stereo not drawn) | Percent Effect | % | -1.17 |
| COc1ccc(NC(=O)C2CCOC2)c(N2CCN(C(C)=O)CC2)n1 (stereo not drawn) | Percent Effect | % | 2.08 |
| Cn1cnnc1C1CCCN(C(=O)NCCNc2ccccn2)C1 (stereo not drawn) | Percent Effect | % | 4.46 |
| O=C(C1CC(=O)N(C2CCCC2)C1)N1CCN(CCn2cccc2)CC1 (stereo not drawn) | Percent Effect | % | 19.8 |
| O=C(c1ccncc1)N1CCC(c2nc(O)cc(-c3cccnc3)n2)C1 (stereo not drawn) | Percent Effect | % | -1.55 |
| CCN1CCCn2c(nc(CNC(=O)c3ccsc3)cc2=O)C1 | Percent Effect | % | 3.9 |
| CN(Cc1cscn1)C1CCCN(Cc2noc(C3CC3)n2)C1 (stereo not drawn) | Percent Effect | % | -10.6 |
| O=C(NC1CC1)[C@@H]1CCO[C@@H]2CCN(C3CCOCC3)C[C@@H]21 | Percent Effect | % | 5.79 |
| CCc1ccc(CN(CCCn2ccnc2)Cc2ccc(C)s2)o1 | Percent Effect | % | 2.18 |
| CCc1cnc(CN(C(C)=O)C2CCN(CCS(C)(=O)=O)C2)o1 (stereo not drawn) | Percent Effect | % | 16.1 |
| O=C(COc1cccc(Br)c1)N1CCN(c2nccs2)CC1 | Percent Effect | % | 10.4 |
| Cc1noc(C)c1CN1CC2(CCN(C(=O)c3cscn3)CC2)CC1=O | Percent Effect | % | 16.6 |
| COCc1ccccc1C(=O)N1CCCC(n2nc(C)cc2C)C1 (stereo not drawn) | Percent Effect | % | 3.7 |
| CC(C)Oc1ncccc1CNC(=O)N1CCC(C(N)=O)C1 (stereo not drawn) | Percent Effect | % | 3.84 |
| O=C(NCCC(=O)N1CCCc2ccccc21)c1c(O)cc(F)cc1F | Percent Effect | % | 9.22 |
| Cc1cn2c(n1)CCC(NC(=O)c1cc(C(C)C)no1)C2 (stereo not drawn) | Percent Effect | % | 6.7 |
| CCc1nc(C(=O)N2CCN(C)CC2C)nn1-c1ccccc1Cl (stereo not drawn) | Percent Effect | % | -9.77 |
| Cn1cnnc1C1CCN(c2cncc(-n3cccn3)n2)CC1 | Percent Effect | % | -0.628 |
| Cc1csc(N2CCN(C(=O)CCC(=O)c3ccc(C)s3)CC2)n1 | Percent Effect | % | 1.58 |
| CCn1cnnc1CNC(=O)c1cc(Cl)ccc1O | Percent Effect | % | -0.716 |
| CC(=O)N1CC(=O)N(c2cnn(C)c2)CC12CCN(Cc1ccsc1)C2 (stereo not drawn) | Percent Effect | % | 3.54 |
| O=C(Cn1cc(C(=O)O)ccc1=O)Nc1ccc(Cl)cc1F | Percent Effect | % | 0.752 |
| CNS(=O)(=O)Cc1ccc(CNC(=O)Nc2cccnc2)cc1 | Percent Effect | % | -12.1 |
| COCCN(Cc1ccoc1)C(=O)c1ccccc1Cl | Percent Effect | % | -4.22 |
| CC(C)c1nnc2n1CCN(C(=O)c1ccc(-n3cnnc3)cc1)C2 | Percent Effect | % | -9.83 |
| O=C(O)C1(Cc2cc(-c3ccc(F)cc3F)no2)CCOCC1 | Percent Effect | % | -5.88 |
| Cc1noc(C)c1-c1cncc(C2CCCN2Cc2ccncc2)n1 (stereo not drawn) | Percent Effect | % | 8.81 |
| CCC(CNC(=O)c1cc(OC)ccc1Br)N1CCc2ccccc2C1 (stereo not drawn) | Percent Effect | % | 9.31 |
| Cc1ccc(CNC(=O)CN2CCN(CC(O)C3CC3)CC2)cc1 (stereo not drawn) | Percent Effect | % | -0.425 |
| O=C(c1ccc2c(c1)COC2)N1CCN(CC2CC2)CC1 | Percent Effect | % | 8.43 |
| O=C(c1csc(Br)c1)N1CCCC(n2ccnc2)C1 (stereo not drawn) | Percent Effect | % | -8.98 |
| CCCOc1ccc(NC(=O)NCCC(=O)N(C)C)cc1Cl | Percent Effect | % | 4.95 |
| O=C(Nc1cccc(OCc2ccc(F)cc2)c1)C1COCCO1 (stereo not drawn) | Percent Effect | % | -3.67 |
| CCOCC(O)CN1CCN(C(=O)CC(C)(C)C)CC1 (stereo not drawn) | Percent Effect | % | 5.4 |
| O=C(N1CCCC1)N1Cc2nccn2CC(CN2CCCC2)C1 (stereo not drawn) | Percent Effect | % | -1.18 |
| COc1cccc(-c2nc(C)c(C(=O)N[C@@H](C)C(=O)O)s2)c1 | Percent Effect | % | -2.7 |
| O=C(CCCOc1ccc(F)cc1F)N1CCCC1Cn1cccn1 (stereo not drawn) | Percent Effect | % | 17.7 |
| CN(Cc1nnc2n1CCC2)C(=O)NCCc1ccc2c(c1)OCO2 | Percent Effect | % | -0.223 |
| CN(C)C(=O)COC1COC2(CCN(S(C)(=O)=O)CC2)C1 (stereo not drawn) | Percent Effect | % | -7.02 |
| CCOCCCn1c(NC(=O)c2scnc2C)nc2ccccc21 | Percent Effect | % | 23.1 |
| CCOCCn1nc(C)cc1C(=O)N1CCN(C(C)C)C(CC)C1 (stereo not drawn) | Percent Effect | % | 4.47 |
| Cc1cccc(NC(=O)c2sccc2C)n1 | Percent Effect | % | -12.7 |
| O=C(NCC1CCOCC1)[C@H]1C[C@@H]2CCN(Cc3ccncc3)C[C@@H]2O1 | Percent Effect | % | 1.78 |
| Cn1cccc1C(=O)N1CCN(CC2CC2)c2ncccc2C1 | Percent Effect | % | 2.72 |
| CC(C)c1csc(C2CCCN(C(=O)c3ncccn3)C2)n1 (stereo not drawn) | Percent Effect | % | -10.4 |
| CC(CNC(=O)Nc1ccc(N(C)C)nc1)Cn1cccn1 (stereo not drawn) | Percent Effect | % | -3.22 |
| O=C(Cc1ccc2c(c1)OCCO2)N1CCCC(n2ccnc2)C1 (stereo not drawn) | Percent Effect | % | -6.56 |

Recorded values, source ChEMBL document CHEMBL3988442.
